Just for reference, patent US20060140858A1 is where these values come from.

# Procedure Text: Clearance of 99m-Tc-IMP-192 in BALB/c mice
# Assay type: in vivo
# Conditions Used: BALB/c, mouse, total radioactivity; Blood, 1 h
Where a SMILES comes first, the peptide text is derived from it. Side-chain parts run from the residue outwards. The star is where a group is joined. DTPA = O=C(O)CN(CCN(CC(=O)O)CC(=O)O)CCN(CC(=O)O)CC(=O)*; X1 = NC(=S)NN=CC(=O)*
Measured Endpoint: tissue uptake at 1 h (%ID/g)
Give the quantity in %ID/g, number only.

Data request: Can you look up the measured tissue uptake at 1 h of CC(=O)N[C@@H](CCCCNC(=O)CN(CCN(CCN(CC(=O)O)CC(=O)O)CC(=O)O)CC(=O)O)C(=O)N[C@@H](Cc1ccc(O)cc1)C(=O)N[C@@H](CCCCNC(=O)CN(CCN(CCN(CC(=O)O)CC(=O)O)CC(=O)O)CC(=O)O)C(=O)N[C@@H](CCCCNC(=O)[C@H](CS)NC(=O)C=NNC(N)=S)C(N)=O [IMP 192] (Ac-K(DTPA)YK(DTPA)K([Cys-X1])-NH2) for me?
Data returned: 0.3
